Reported values of pIC50 for individual entries
Target: phosphorylated active hERK2 enzyme (Homo sapiens (Human))
Assay: Active Human ERK2 (hERK2) Activity Assay (IMAP-FP)
Type: biochemical
Conditions: Table 6, 0.5 nM hERK2, 30 μM ATP, 10 point titration, read-out: AERK2 IC50
Please express pIC50 as -log10 of the molar concentration.

Observe how each entry below is paired with its result.
Molecule: C[C@@H]1CCN1c1n[nH]c2cc(NC(=O)N[C@H](C)c3ccccc3)ncc12
Quantity Measured: pIC50
Val: 7.28
--
Molecule: Cc1nc(NC(=O)N[C@@H](c2ccc(F)cc2)C(C)(C)O)cc2[nH]nc(N3CCC3)c12
Quantity Measured: pIC50
Val: 8.89
--
Molecule: C[C@@H](NC(=O)Nc1cc2[nH]nc(Nc3ccc(F)cc3)c2cn1)c1ccccc1
Quantity Measured: pIC50
Val: 7.03
--
Molecule: COC[C@@H](NC(=O)Nc1cc2[nH]nc(NC(C)C(F)(F)F)c2cn1)c1ccccc1 (some centres unmarked) [Example 421]
Quantity Measured: pIC50
Val: 9.22
--
Molecule: COC(=O)Nc1n[nH]c2cc(NC(=O)N[C@H](C)c3ccc(Cl)nc3)ncc12
Quantity Measured: pIC50
Val: 7.72

# input molecule: "CCNc1n[nH]c2cc(NC(=O)N[C@H](C)c3ccccc3)nc(COC)c12" ; wanted: its pIC50
8.36

# input molecule: CCNc1n[nH]c2cc(NC(=O)NCC(C)c3ccccc3)ncc12 (centres unmarked) ; wanted: its pIC50
7.77

# input molecule: "COC[C@@H](NC(=O)Nc1cc2[nH]nc(N[C@@H]3CCOC3)c2cn1)c1ccccc1" ; wanted: its pIC50
9.10

###

Target: UniProt P28482
Test: Active Human ERK2 (hERK2) Activity Assay (IMAP-FP)
Type: biochemical
Conditions: Table 6, 0.5 nM hERK2, 30 μM ATP, 10 point titration, read-out: AERK2 IC50
// classify: if (IC50 < 4 nM) YES else NO

Record excerpt, results attached:
Compound: COC(C)(C)C(NC(=O)Nc1cc2[nH]nc(N3C[C@@H](C)O[C@@H](C)C3)c2cn1)c1ccc(F)cc1 (stereo partly drawn) [Example 432]
Target Of Assay: UniProt P28482
Label: YES
//
Compound: C[C@@H](NC(=O)Nc1cc2[nH]nc(N)c2cn1)c1cccc(Cl)c1 [Example 272]
Target Of Assay: UniProt P28482
Label: NO
//
Compound: C[C@@H](NC(=O)Nc1cc2[nH]nc(N3CCC(C)(O)CC3)c2cn1)c1ccccc1 [Example 424]
Target Of Assay: UniProt P28482
Label: NO

Please determine if COC[C@@H](NC(=O)Nc1cc2[nH]nc(Nc3cnn(C)c3)c2cn1)c1ccccc1 [Example 370] is below 4 nM in terms of IC50.
NO

Please determine if COC[C@@H](NC(=O)Nc1cc2[nH]nc(NC(C)C(F)(F)F)c2cn1)c1ccccc1 (stereo partly drawn) [Example 417] is below 4 nM in terms of IC50.
YES

Please determine if CCNc1n[nH]c2cc(NC(=O)NCc3ncccc3F)ncc12 [Example 279] is below 4 nM in terms of IC50.
NO

Please determine if CC(CN1CCOCC1)Nc1n[nH]c2cc(NC(=O)N[C@H](C)c3ccccc3)ncc12 (stereo partly drawn) [Example 175] is below 4 nM in terms of IC50.
NO

Please determine if O=C(Nc1cc2[nH]nc(NC(=O)N3CC(F)(F)C3)c2cn1)N[C@H]1c2ccccc2OCC[C@H]1O [Example 396] is below 4 nM in terms of IC50.
YES

Please determine if COc1ccccc1Nc1n[nH]c2cc(NC(=O)N[C@H](C)c3ccccc3)ncc12 [Example 121] is below 4 nM in terms of IC50.
NO

Please determine if CC(C)N1CCc2nc(NC(=O)N[C@H](C)c3ccccc3)cc3[nH]nc1c23 [Example 142] is below 4 nM in terms of IC50.
YES

Please determine if C[C@@H](NC(=O)Nc1cc2[nH]nc(NCC3CCOCC3)c2cn1)c1ccccc1 [Example 166] is below 4 nM in terms of IC50.
YES

Please determine if CCNc1n[nH]c2cc(NC(=O)NC(c3ccc(F)cc3)C(C)(C)OC)ncc12 (stereo not drawn) [Example 430] is below 4 nM in terms of IC50.
YES

Please determine if CCNc1n[nH]c2cc(NC(=O)NCc3cccc(F)c3)ncc12 [Example 241] is below 4 nM in terms of IC50.
NO

Please determine if C[C@@H](NC(=O)Nc1cc2[nH]nc(NCc3ccncc3)c2cn1)c1ccccc1 [Example 179] is below 4 nM in terms of IC50.
YES

Please determine if CC(C)(O)[C@@H](NC(=O)Nc1cc2[nH]nc(N3CCOCC3)c2c(CO)n1)c1ccccc1 [Example 109] is below 4 nM in terms of IC50.
YES

Please determine if COC(=O)Nc1n[nH]c2cc(NC(=O)N[C@@H]3CN(C)C[C@H]3c3ccccc3)ncc12 [Example 291] is below 4 nM in terms of IC50.
YES

###

Target: UniProt:P28482
Experiment: Active Human ERK2 (hERK2) Activity Assay (IMAP-FP)
Type: biochemical
Details: Table 6, 0.5 nM hERK2, 30 μM ATP, 10 point titration, read-out: AERK2 IC50
Reported values of pIC50 for individual entries
Please express pIC50 as -log10 of the molar concentration.

Observe how each entry below is paired with its result.
Molecule: O=C(Nc1cc2[nH]nc(N3CCOCC3)c2cn1)N[C@H](CO)c1ccccc1
Val: 9.40
--
Molecule: C[C@@H](NC(=O)Nc1cc2[nH]nc(N[C@H]3CCOC3)c2cn1)c1ccccc1
Val: 8.68
--
Molecule: CO[C@@H]1CCC[C@H]1NC(=O)Nc1cc2[nH]nc(N)c2cn1
Val: 6.32
--
Molecule: COCC1CN(c2n[nH]c3cc(NC(=O)N[C@H](C)c4ccccc4)ncc23)C1
Val: 8.07
--
Molecule: CC(C)(O)[C@@H](NC(=O)Nc1cc2[nH]nc(N3CC4CCC(C3)O4)c2cn1)c1ccccc1
Val: 9.30

# input molecule: "CC(C)(O)[C@@H](NC(=O)Nc1cc2[nH]nc(N3CC(F)(F)C3)c2cn1)c1ccccc1" ; wanted: its pIC50
9.22

# input molecule: "COC1CCN(c2n[nH]c3cc(NC(=O)N[C@H](COC(F)F)c4ccccc4)ncc23)CC1" ; wanted: its pIC50
9.00

# input molecule: "CC(C)(O)[C@@H](NC(=O)Nc1cc2[nH]nc(NC(=O)N3CCOCC3)c2cn1)c1ccc(F)cc1" ; wanted: its pIC50
8.62

# input molecule: Nc1n[nH]c2cc(NC(=O)NC3COc4ccccc43)ncc12 (stereo not drawn) ; wanted: its pIC50
6.49

# input molecule: C[C@@H](NC(=O)Nc1cc2[nH]nc(N3CC4CC3CO4)c2cn1)c1ccccc1 (stereo partly drawn) ; wanted: its pIC50
8.22

# input molecule: "C[C@@H](NC(=O)Nc1cc2[nH]nc(NCCN3CCOCC3)c2cn1)c1ccccc1" ; wanted: its pIC50
7.55

# input molecule: "COC(=O)Nc1n[nH]c2cc(NC(=O)N[C@H](C)c3ccc(Cl)c(O)c3)ncc12" ; wanted: its pIC50
8.77

# input molecule: CC(C)(O)[C@@H](NC(=O)Nc1cc2[nH]nc(N3CC4CC3CO4)c2cn1)c1ccc(F)cc1 (stereo partly drawn) ; wanted: its pIC50
9.10

# input molecule: "[2H]C([2H])([2H])C([2H])([2H])Nc1n[nH]c2cc(NC(=O)N[C@H](C)c3ccccc3)ncc12" ; wanted: its pIC50
8.80

# input molecule: COC[C@@H](NC(=O)Nc1cc2[nH]nc(NC3CCOC3)c2cn1)c1ccccc1 (stereo partly drawn) ; wanted: its pIC50
8.96

# input molecule: "C[C@@H](NC(=O)Nc1cc2[nH]nc(NC(=O)OCc3ccccc3)c2cn1)c1ccccc1" ; wanted: its pIC50
7.40

###

Molecular target: phosphorylated active hERK2 enzyme (Homo sapiens (Human), UniProt P28482)
Sequence (P28482 whole entry): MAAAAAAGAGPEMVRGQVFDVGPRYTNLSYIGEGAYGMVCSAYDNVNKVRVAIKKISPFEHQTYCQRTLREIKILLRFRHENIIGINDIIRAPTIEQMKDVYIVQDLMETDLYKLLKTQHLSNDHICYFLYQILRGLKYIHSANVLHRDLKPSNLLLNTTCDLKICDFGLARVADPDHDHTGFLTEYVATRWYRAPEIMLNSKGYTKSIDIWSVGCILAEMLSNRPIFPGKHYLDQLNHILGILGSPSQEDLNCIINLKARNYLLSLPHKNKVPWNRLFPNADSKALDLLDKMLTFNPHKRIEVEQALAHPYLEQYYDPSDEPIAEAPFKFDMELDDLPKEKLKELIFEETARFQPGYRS
Test: Active Human ERK2 (hERK2) Activity Assay (IMAP-FP)
Type: biochemical
Details: Table 6, 0.5 nM hERK2, 30 μM ATP, 10 point titration, read-out: AERK2 IC50
Protocol: Assays Active Human ERK2 (hERK2) Activity Assay: Activated ERK2 activity was determined in an IMAP-FP assay (Molecular Devices). […] The final reaction in each well of 25 μL consists of 0.5 nM hERK2, 900 nM unlabeled peptide, 80 nM labeled-peptide, and 30 μM ATP. […] Plates were read on EnVision reader after 60 minutes binding equilibration using Fluorescence Polarization protocol (Perkin Elmer).
// classify: if (IC50 < 10 nM) condition met else condition not met

Compound: CCNc1n[nH]c2cc(NC(=O)N[C@H](C)c3cccc(Cl)c3)ncc12 [Example 246]
Label: condition met

Compound: C[C@@H](NC(=O)Nc1cc2[nH]nc(NC(=O)C(C)(C)C)c2cn1)c1ccccc1 [Example 215]
Label: condition met

Please determine if COC[C@@H](NC(=O)Nc1cc2[nH]nc(Nc3ccccc3C#N)c2cn1)c1ccccc1 [Example 383] is below 10 nM in terms of IC50.
condition not met

Please determine if CN1C[C@@H](NC(=O)Nc2cc3[nH]nc(N)c3cn2)[C@H](c2ccccc2)C1 [Example 277] is below 10 nM in terms of IC50.
condition met

Please determine if CCNc1n[nH]c2cc(NC(=O)N[C@H](C)c3ccc(F)c(Cl)c3)ncc12 [Example 245] is below 10 nM in terms of IC50.
condition met

Please determine if CC(C)(O)[C@@H](NC(=O)Nc1cc2[nH]nc(N3CCOCC3)c2cn1)c1ccc(F)cc1 [Example 438] is below 10 nM in terms of IC50.
condition met

Please determine if CNc1n[nH]c2cc(NC(=O)N[C@H](C)c3ccc(Cl)cc3)ncc12 [Example 343] is below 10 nM in terms of IC50.
condition met

Please determine if C[C@@H](NC(=O)Nc1cc2[nH]nc(Nc3ccccc3)c2cn1)c1ccccc1 [Example 379] is below 10 nM in terms of IC50.
condition not met

Please determine if COC(=O)Nc1n[nH]c2cc(NC(=O)N[C@H](C)c3cccc(Cl)c3)ncc12 [Example 287] is below 10 nM in terms of IC50.
condition met
